Test system: HepG2
Assay Text: GSK_TCMDC: Percent inhibition of human HepG2 cell line. Test compounds present at 10uM.
Format: functional
I'd be grateful if you could share measured Inhibition for these entries.
Give bare numbers, in %.

Please review the following examples before continuing.
Molecule: Cc1ccc(C)c(NC(=O)Nc2ccc(C)c(-c3ccc(C(=O)Nc4ccncc4)cc3)c2)c1
Endpoint: Inhibition
Value Unit: %
Experimental Result: 46
--
Molecule: CC(C)C[C@H](NC(=O)[C@H](Cc1ccccc1)NC(=O)CCN1C(=O)COc2ccc(C(=O)O)cc21)C(=O)NC(CC1CCCCC1)C(O)CC(=O)NCCCn1ccnc1.Cl.O (stereo partly specified)
Endpoint: Inhibition
Value Unit: %
Experimental Result: 0
--
Molecule: O=C(Nc1cccc(CN2CCCN(Cc3ccc(O)cc3)CC2)c1)c1ccc(-c2ccccc2)cc1.O=C(O)C(F)(F)F
Endpoint: Inhibition
Value Unit: %
Experimental Result: 33
--
Molecule: CCn1ccc2c(N3CCCS3(=O)=O)cc(C(=O)N[C@@H](Cc3ccccc3)[C@H](O)CNC3CCCCC3)cc21
Endpoint: Inhibition
Value Unit: %
Experimental Result: 0
--
Molecule: CS(=O)(=O)N1CC2(CCN(CCC(NC(=O)NCc3ccccc3Cl)c3ccc(Cl)c(Cl)c3)CC2)c2ccccc21 (stereo unspecified)
Endpoint: Inhibition
Value Unit: %
Experimental Result: 12

Need Inhibition for each of these molecules.
1. CCNc1cc(C(=O)N[C@@H](Cc2ccccc2)[C@H](O)CNCCCc2ccc(OC)cc2)cc(N2CCCC2=O)c1.O=C(O)C(F)(F)F
2. Cc1cc(N[C@@H](Cc2ccccc2)C(=O)NCCc2ccccc2)nc(NCCc2ccccc2)n1.O=C(O)C(F)(F)F

### Response
1: 4; 2: 0

---

Hi there, I'd appreciate the recorded Inhibition for every entry that follows.
System: HepG2
Assay Text: GSK_TCMDC: Percent inhibition of human HepG2 cell line. Test compounds present at 10uM.
Type: functional
Numbers only, in %.

Please review the entries below; each comes with its answer.
Compound: O=C(Nc1cccc(CN2CCN(C(=O)c3cccs3)CC2)c1)c1cccs1.O=C(O)C(F)(F)F
Tested On: HepG2
Experimental Result: 0
--
Compound: CC(C)CNC(=O)c1cncc(-c2cccc(CNC3Cc4ccccc4C3)c2)c1.O=C(O)C(F)(F)F
Tested On: HepG2
Experimental Result: 4
--
Compound: Oc1ccc(CCNCc2ccc(OCc3ccccc3)c(OCc3ccccc3)c2)cc1
Tested On: HepG2
Experimental Result: 31

Would you be so kind as to report Inhibition for each listed record?
1. COc1ccc2nc(C)cc(Nc3ccc(Oc4ccc5ccccc5c4)c(Cl)c3)c2c1
2. CC(C)C1C(=O)N(S(C)(=O)=O)C2CCN(C(=O)c3ccc(CN4CCCCC4)c([N+](=O)[O-])c3)C12.Cl (stereo not given)

### Response
1: 40; 2: 10

---

Kindly state Inhibition for each of the entries shown.
Test system: Plasmodium falciparum
Assay Text: GSK_TCMDC: Inhibition of Plasmodium falciparum 3D7 in whole red blood cells, using parasite LDH activity as an index of growth. Test compounds present at 2uM
Format: functional
Give bare numbers, in %.

Previously resolved entries follow.
Compound: CN1CCC(C(=O)N(Cc2ccc(-c3ccc(CNCCc4ccc(S(C)(=O)=O)cc4)cn3)cc2)Cc2ccc3c(c2)OCO3)CC1.O=C(O)C(F)(F)F
Tested On: Plasmodium falciparum
Experimental Result: 91
//
Compound: Fc1cccc(COc2ccc(Nc3ncnc4ccc(C#C[C@H]5CCCN5)cc34)cc2Cl)c1
Tested On: Plasmodium falciparum
Experimental Result: 91
//
Compound: CC(Cc1ccc(C(=O)OCCOC(=O)c2ccc(CC(C)NCC(O)c3cccc(C(F)(F)F)c3)cc2)cc1)NCC(O)c1cccc(C(F)(F)F)c1 (configuration not stated)
Tested On: Plasmodium falciparum
Experimental Result: 98
//
Compound: CC(C)N1CCC(N(Cc2ccc(-c3ccc(Cl)cc3)cc2)C(=O)Cn2c(CCc3cccc(F)c3F)cc(=O)c3ccccc32)CC1.O=C(O)C(O)C(O)C(=O)O
Tested On: Plasmodium falciparum
Experimental Result: 96
//
Compound: CCCC(CNC(=O)c1cc2c(Cl)cc(Cl)cc2[nH]1)CNc1cc(=O)c2ccccc2[nH]1.O=C(O)C(F)(F)F (configuration not stated)
Tested On: Plasmodium falciparum
Experimental Result: 100
//
Compound: CN1CCN(c2ccc(Nc3c(C(N)=O)cnc4cc(-c5ccoc5)ccc34)cc2C(F)(F)F)CC1.Cl
Tested On: Plasmodium falciparum
Experimental Result: 100
//
Compound: COc1cc(CCOc2c(C)nc(N)nc2N)cc(OC)c1OC.Cl
Tested On: Plasmodium falciparum
Experimental Result: 93
//
Compound: O=C(Nc1cc(F)cc(F)c1)NC1CCN(CCCCCNC(=O)C2CC2c2ccc(Cl)c(Cl)c2)CC1 (configuration not stated)
Tested On: Plasmodium falciparum
Experimental Result: 100
//
Compound: Cl.O=C(Nc1ccnc2ccccc12)NC1CCN(CCc2ccccc2)CC1
Tested On: Plasmodium falciparum
Experimental Result: 100
//
Compound: Cc1ccc2[nH]c(-c3ccccc3)cc(=NN=Cc3cccnc3)c2c1
Tested On: Plasmodium falciparum
Experimental Result: 99

Parameters: items (list). Returns: Inhibition for each item.
1. Oc1ccc(-c2nc(-c3ccc4oc5ccc(-c6[nH]c(-c7ccc(O)cc7)nc6-c6ccccc6)cc5c4c3)c(-c3ccccc3)[nH]2)cc1
2. O=C(Nc1cccc(CN2CCCN(CC3CCCCC3)CC2)c1)c1cc2ccccc2s1.O=C(O)C(F)(F)F
3. NC(=O)c1ccc(C(=O)Nc2cccc(-c3csc(-c4nc5ccccc5[nH]4)c3)c2)cc1
4. Cc1ccccc1C1CCN(c2ccc(C(=O)NC3CC3)cn2)CC1.O=C(O)C(F)(F)F
5. Cc1cccc2nc(-c3cccc(-c4ccc(C(=O)NCc5nccn5C)cc4)c3)[nH]c12
6. Cc1cc(C(=O)CN2C(=O)NC(C)(c3cccc4ccccc34)C2=O)c(C)n1Cc1ccco1 (configuration not stated)

### Response
84
96
100
95
100
90

Lookup result for Cc1cccc2nc(-c3ccc(-c4ccc(NC(=O)c5cncn5C)cc4)s3)[nH]c12 ; measured Inhibition: 100

---

Tested on: HepG2
Assay Text: GSK_TCMDC: Percent inhibition of human HepG2 cell line. Test compounds present at 10uM.
Format: functional
Answer each item with its documented Inhibition.
Give bare numbers, in %.

Compound: CC(C)NCc1cc(Nc2ccnc3cc(Cl)ccc23)ccc1O.Cl
Inhibition / %: 27
--
Compound: Cc1cc(=NN=Cc2ccccc2Cl)c2ccccc2[nH]1
Inhibition / %: 0
--
Compound: CC(=O)Nc1cc(C(=O)Nc2ccc(C3=NCCN3)cc2)ccc1C(=O)Nc1ccc(C2=NCCN2)cc1.Cl
Inhibition / %: 12
--
Compound: CC(C)(C)c1cc(C(=O)N2CCN(c3ncccc3C(F)(F)F)CC2)n(Cc2ccccc2)n1
Inhibition / %: 0
--
Compound: Cl.O=S(=O)(Nc1ccc2nccc(N3CCNCC3)c2c1)c1ccc2c(Cl)cccc2c1
Inhibition / %: 11
--
Compound: CCCCNCc1ccc(-c2nc(CN(Cc3ccc(Cl)c(Cl)c3)C(=O)CN(C)C)cs2)cc1.O=C(O)C(F)(F)F
Inhibition / %: 36
--
Compound: CCN1CCN(CCCNc2c3ccccc3nc3ccccc23)CC1.Cl
Inhibition / %: 44
--
Compound: CNC(=O)c1cnc(Nc2ccc(N3CCN(C)CC3)cc2)nc1Nc1cccc(OC(C)C)c1.O=C(O)C(F)(F)F
Inhibition / %: 16

// next item, Inhibition requested
The compound listed as COC(=O)C(NC(=O)NC1CCN(c2ccnc(Nc3ccc(F)cc3)n2)C1)c1ccccc1 (centres undefined) has a reported Inhibition of 11

---

For each entry below, report its Inhibition value.
Tested on: Plasmodium falciparum
Assay Text: GSK_TCMDC: Inhibition of Plasmodium falciparum Dd2 in whole red blood cells, using parasite LDH activity as an index of growth. Test compounds present at 2uM
Assay type: functional

Give measured Inhibition for every item shown.
1. CS(=O)(=O)c1ccc(CCNCc2ccc(-c3ccc(CN(C(=O)c4cccc(C#N)c4)C4CCN(Cc5ccccc5)CC4)cc3)nc2)cc1.O=C(O)C(F)(F)F
2. O=C(N[C@@H](Cc1ccccc1)[C@H](O)CNCCC(F)(F)F)c1cccc(CCC2CC2)c1
3. COc1cccc(OC)c1-c1ccccc1NC(=O)N1CCCc2cc(C)ccc21

### Response
1. 56%
2. 13%
3. 84%

---

System: HepG2
Assay Text: GSK_TCMDC: Percent inhibition of human HepG2 cell line. Test compounds present at 10uM.
Assay type: functional
Is Inhibition at least 20%? Then met. If not, not met.

Compound: O=C(O)C(F)(F)F.Oc1ccc(CCNc2nc(NCCCOc3ccccc3-c3cccnc3)nc(N3CCNCC3)n2)cc1
Class Label: not met
//
Compound: Cc1cc(N2CC=CCC2)nc(NC(=N)Nc2ccc(Cl)cc2)n1
Class Label: not met
//
Compound: COC(=O)c1cc(C(O)CNC(C)CCCc2ccccc2)ccc1O.Cl (stereo not drawn)
Class Label: not met
//
Compound: Cn1nc(-c2ccc(NC(=O)Nc3cc(C(F)(F)F)ccc3F)c(F)c2)c2cnc(NCCCN3CCOCC3)nc21.O=C(O)C(F)(F)F
Class Label: met
//
Compound: O=C(Nc1ccc(Cl)cc1)c1cccc2nc(C(F)(F)F)[nH]c12
Class Label: met
//
Compound: CN1CCN(CC(=O)Nc2cccc(-c3cccc(-c4nc5cc(C(F)(F)F)ccc5[nH]4)c3)c2)CC1
Class Label: met

### Prompt Dear colleague, could you confirm whether Cc1cccc2nc(-c3ccc(-c4cccc(CNC5CCN(C)CC5)c4)s3)[nH]c12.O=C(O)C(F)(F)F has Inhibition at or above 20%?
### Response met

### Prompt Please tell me: is the compound Cc1nn(-c2ccccc2)nc1C(=O)N(Cc1ccc(-c2ccc(CNCCc3ccc(S(C)(=O)=O)cc3)cn2)cc1)C(C)CN(C)C.O=C(O)C(F)(F)F (stereo not drawn) at or over 20% in terms of Inhibition?
### Response met
